Test system: NCI-N87
Assay explanation: cells
Format: cell-based
Condition notes: Homo sapiens, 120 h; NCI-N87 cells, five days co-incubation; read-out: IC50 (nM) NCI-N87
In this section, each of the compounds is paired with its reported IC50.
Recorded metric: IC50

INSERT INTO measurements (compound, test_target, assay_value) VALUES
  ('COc1c(C)cc2c(c1O)[C@@H]1[C@@H]3[C@@H]4SC[C@]5(NCC(C)(C)c6c5ccc(N)c6OC)C(=O)OC[C@@H](c5c6c(c(C)c(OC(C)=O)c54)OCO6)N3[C@@H](C#N)[C@H](C2)N1C [T18]', 'NCI-N87', '< 1 nM'),
  ('COc1cc2c(cc1NC(=O)CO)C(C)(C)CN[C@]21CS[C@@H]2c3c(OC(C)=O)c(C)c4c(c3[C@H](COC1=O)N1[C@@H]2[C@H]2c3c(cc(C)c(OC)c3O)C[C@@H]([C@@H]1C#N)N2C)OCO4 [P96]', 'NCI-N87', '< 1 nM'),
  ('COc1cc2c(cc1NC(=O)[C@H]1C[C@H](O)C1)CCN[C@]21CS[C@@H]2c3c(OC(C)=O)c(C)c4c(c3[C@H](COC1=O)N1[C@@H]2[C@H]2c3c(cc(C)c(OC)c3O)C[C@@H]([C@@H]1C#N)N2C)OCO4 [P75]', 'NCI-N87', '< 1 nM'),
  ('COc1cc2c(cc1N)[C@@H](OS(=O)(=O)O)CN[C@]21CS[C@@H]2c3c(OC(C)=O)c(C)c4c(c3[C@H](COC1=O)N1[C@@H]2[C@H]2c3c(cc(C)c(OC)c3O)C[C@@H]([C@@H]1C#N)N2C)OCO4 [P14]', 'NCI-N87', '> 200 nM'),
  ('COc1c(C)cc2c(c1O)[C@@H]1[C@@H]3[C@@H]4SC[C@]5(NC[C@@H](O)c6cc(N)ccc65)C(=O)OC[C@@H](c5c6c(c(C)c(OC(C)=O)c54)OCO6)N3[C@@H](C#N)[C@H](C2)N1C [P9]', 'NCI-N87', '< 1 nM');

====

Test system: NCI-N87
Assay explanation: cells
Format: cell-based
Condition notes: Homo sapiens, 120 h; NCI-N87 cells, five days co-incubation; read-out: IC50 (nM) NCI-N87
Each entry below carries its recorded IC50.
Recorded metric: IC50

INSERT INTO results (molecule, recorded_metric, assay_value) VALUES
  ('COc1cc2c(cc1N)C(C)(C)CN[C@]21CS[C@@H]2c3c(OC(C)=O)c(C)c4c(c3[C@H](COC1=O)N1[C@@H]2[C@H]2c3c(cc(C)c(OC)c3O)C[C@@H]([C@@H]1O)N2C)OCO4 [P52]', 'IC50', '< 1 nM'),
  ('COc1c(C)cc2c(c1O)[C@@H]1[C@@H]3[C@@H]4SC[C@]5(NCCc6cc(NC(=O)CO)c(OC)c(OC)c65)C(=O)OC[C@@H](c5c6c(c(C)c(OC(C)=O)c54)OCO6)N3[C@@H](C#N)[C@H](C2)N1C [T15]', 'IC50', '10 to 200 nM'),
  ('COc1cc2c(cc1NC(=O)CO)C1(CC1)CN[C@]21CS[C@@H]2c3c(OC(C)=O)c(C)c4c(c3[C@H](COC1=O)N1[C@@H]2[C@H]2c3c(cc(C)c(OC)c3O)C[C@@H]([C@@H]1C#N)N2C)OCO4 [T11]', 'IC50', '< 1 nM'),
  ('COc1c(C)cc2c(c1O)[C@@H]1[C@@H]3[C@@H]4SC[C@]5(NCCc6cc(N)cc(O)c65)C(=O)OC[C@@H](c5c6c(c(C)c(OC(C)=O)c54)OCO6)N3[C@@H](C#N)[C@H](C2)N1C [T12]', 'IC50', '1 to 10 nM'),
  ('COc1c(C)cc2c(c1O)[C@@H]1[C@@H]3[C@@H]4SC[C@]5(NCCc6c5ccc(NC(=O)CO)c6O)C(=O)OC[C@@H](c5c6c(c(C)c(OC(C)=O)c54)OCO6)N3[C@@H](C#N)[C@H](C2)N1C [T7]', 'IC50', '1 to 10 nM');
